System: PI 3-kinase immunoprecipitated from human platelets
testDescription: In vitro PI 3-kinase assay (32P incorporation into PI)
Type: biochemical
conditionInfo: PI 3-kinase from human platelets, PI substrate
pIC50: −log10 of the molar value.
// reported pIC50 per item
observedProperty: pIC50

[[record]]
compound = "Cc1cc(Nc2ccc(O)cc2)c2nc(N3CCOCC3)cc(=O)n2c1 [TGX-101]"
datavalue = 7.00

[[record]]
compound = "Cc1cc(Oc2cccc3c(=O)cc(N4CCOCC4)oc23)ccc1F [TGX-173]"
datavalue = 7.00

[[record]]
compound = "Cc1cc(C2CCN(C)C2=O)c2nc(N3CCOCC3)cc(=O)n2c1 (centres unmarked) [TGX-153]"
datavalue = 4.70

[[record]]
compound = "O=c1cc(N2CCOCC2)oc2c(Cc3ccccc3)cccc12 [TGX-90]"
datavalue = 7.00

[[record]]
compound = "O=c1cc(N2CCOCC2)[nH]c2c(Cc3ccc(F)cc3)cccc12 [TGX-99]"
datavalue = 6.00


----------
Listing of entries alongside the reported pIC50.
System: PI 3-kinase immunoprecipitated from human platelets
testDescription: In vitro PI 3-kinase assay (32P incorporation into PI)
Assay type: biochemical
conditionInfo: PI 3-kinase from human platelets, PI substrate
pIC50: −log10 of the molar value.
observedProperty: pIC50

[[record]]
molecule = "Cc1c(Oc2ccccc2)ccc2c(=O)cc(N3CCOCC3)oc12 [TGX-159]"
observedproperty = "pIC50"
datavalue = 5.00

[[record]]
molecule = "Cc1cc(NCc2ccccn2)c2nc(N3CCOCC3)cc(=O)n2c1"
observedproperty = "pIC50"
datavalue = 6.30

[[record]]
molecule = "Cc1cc(-c2ccsc2)c2nc(N3CCOCC3)cc(=O)n2c1"
observedproperty = "pIC50"
datavalue = 6.00

[[record]]
molecule = "Cc1c(Oc2ccccc2)ccc2c(=O)cc(N3CCOCC3)oc12 [TGX-160]"
observedproperty = "pIC50"
datavalue = 5.70

[[record]]
molecule = "Cc1cc(-c2ccccc2C(F)(F)F)c2nc(N3CCOCC3)cc(=O)n2c1"
observedproperty = "pIC50"
datavalue = 5.70


----------
targetOrSystem: tyrosine kinase fyn (Homo sapiens)
Sequence (P06241 whole entry): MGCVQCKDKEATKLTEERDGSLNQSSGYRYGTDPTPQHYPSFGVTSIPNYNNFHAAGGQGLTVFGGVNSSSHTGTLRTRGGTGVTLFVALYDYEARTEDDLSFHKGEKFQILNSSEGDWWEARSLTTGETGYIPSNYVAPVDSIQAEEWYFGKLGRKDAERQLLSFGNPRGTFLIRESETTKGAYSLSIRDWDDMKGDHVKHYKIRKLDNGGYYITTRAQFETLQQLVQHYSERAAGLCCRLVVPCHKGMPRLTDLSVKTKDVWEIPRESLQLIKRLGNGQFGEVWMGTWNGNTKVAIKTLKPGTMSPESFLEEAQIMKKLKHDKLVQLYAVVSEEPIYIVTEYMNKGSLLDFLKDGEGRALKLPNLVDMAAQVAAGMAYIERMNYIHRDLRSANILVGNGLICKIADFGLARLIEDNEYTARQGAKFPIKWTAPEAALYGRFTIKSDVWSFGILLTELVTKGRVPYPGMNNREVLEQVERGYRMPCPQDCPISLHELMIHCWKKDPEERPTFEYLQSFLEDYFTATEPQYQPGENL
pIC50: −log10 of the molar value.
observedProperty: pIC50

[[record]]
structuresmilesstring = "O=c1cc(N2CCOCC2)[nH]c2c(Oc3ccccc3)cccc12"
datavalue = "< 4.00"


----------
Tested on: PI 3-kinase immunoprecipitated from human platelets
testDescription: In vitro PI 3-kinase assay (32P incorporation into PI)
Assay type: biochemical
conditionInfo: PI 3-kinase from human platelets, PI substrate
# log10 IC50 per record follows
observedProperty: log10 IC50 (log10 of the value in nM)

[[record]]
molecule = "Cc1cc(NCc2ccccc2)c2nc(N3CCOCC3)cc(=O)n2c1 [TGX-126]"
targetorsystem = "PI 3-kinase immunoprecipitated from human platelets"
datavalue = 1.70

[[record]]
molecule = "Cc1ccc(Oc2cccc3c(=O)cc(N4CCOCC4)[nH]c23)cc1 [TGX-113]"
targetorsystem = "PI 3-kinase immunoprecipitated from human platelets"
datavalue = 2.70

[[record]]
molecule = "Cc1cc(Nc2ccccc2OCCN(C)C)c2nc(N3CCOCC3)cc(=O)n2c1 [TGX-162]"
targetorsystem = "PI 3-kinase immunoprecipitated from human platelets"
datavalue = 3.30

[[record]]
molecule = "Cc1cc(Nc2ccc(Cl)cc2)c2nc(N3CCOCC3)cc(=O)n2c1 [TGX-107]"
targetorsystem = "PI 3-kinase immunoprecipitated from human platelets"
datavalue = 3.00

[[record]]
molecule = "COc1ccccc1CNc1cc(C)cn2c(=O)cc(N3CCOCC3)nc12 [TGX-137]"
targetorsystem = "PI 3-kinase immunoprecipitated from human platelets"
datavalue = 1.70

[[record]]
molecule = "O=c1cc(N2CCOCC2)[nH]c2c(Sc3ccccc3)cccc12 [TGX-111]"
targetorsystem = "PI 3-kinase immunoprecipitated from human platelets"
datavalue = 1.70

[[record]]
molecule = "O=c1cc(N2CCOCC2)[nH]c2c(Oc3ccc(F)cc3)cccc12 [TGX-121]"
targetorsystem = "PI 3-kinase immunoprecipitated from human platelets"
datavalue = 1.70

[[record]]
molecule = "COC(=O)c1cccc(Oc2cccc3c(=O)cc(N4CCOCC4)[nH]c23)c1 [TGX-149]"
targetorsystem = "PI 3-kinase immunoprecipitated from human platelets"
datavalue = 2.70

[[record]]
molecule = "Cc1cc(NCc2ccccc2Cl)c2nc(N3CCOCC3)cc(=O)n2c1 [TGX-167]"
targetorsystem = "PI 3-kinase immunoprecipitated from human platelets"
datavalue = 1.70

[[record]]
molecule = "O=c1cc(N2CCOCC2)[nH]c2c(Oc3ccccc3)cccc12 [TGX-84, 2-Morpholino-8-phenoxy-4-quinolone]"
targetorsystem = "PI 3-kinase immunoprecipitated from human platelets"
datavalue = 2.00

[[record]]
molecule = "O=c1cc(N2CCOCC2)oc2c(Oc3ccccc3)cccc12 [TGX-134]"
targetorsystem = "PI 3-kinase immunoprecipitated from human platelets"
datavalue = 2.00

[[record]]
molecule = "Cc1cc(Nc2ccc(F)cc2C)c2nc(N3CCOCC3)cc(=O)n2c1 [TGX-170]"
targetorsystem = "PI 3-kinase immunoprecipitated from human platelets"
datavalue = 2.30

[[record]]
molecule = "O=c1cc(N2CCOCC2)oc2c(O)cccc12 [TGX-125]"
targetorsystem = "PI 3-kinase immunoprecipitated from human platelets"
datavalue = 4.40

[[record]]
molecule = "Cc1cc(NCC2CCNCC2)c2nc(N3CCOCC3)cc(=O)n2c1 [TGX-139]"
targetorsystem = "PI 3-kinase immunoprecipitated from human platelets"
datavalue = 3.00

[[record]]
molecule = "Cc1cc(Nc2ccccc2C(F)(F)F)c2nc(N3CCOCC3)cc(=O)n2c1 [TGX-147]"
targetorsystem = "PI 3-kinase immunoprecipitated from human platelets"
datavalue = 3.70

[[record]]
molecule = "Cc1ccc(S(=O)(=O)Oc2cccc3c(=O)cc(N4CCOCC4)[nH]c23)cc1 [TGX-138]"
targetorsystem = "PI 3-kinase immunoprecipitated from human platelets"
datavalue = 3.00

[[record]]
molecule = "Cc1c(Oc2ccccc2)ccc2c(=O)cc(N3CCOCC3)oc12 [TGX-158]"
targetorsystem = "PI 3-kinase immunoprecipitated from human platelets"
datavalue = 3.70

[[record]]
molecule = "Cc1c(Oc2ccccc2)ccc2c(=O)cc(N3CCOCC3)oc12 [TGX-157]"
targetorsystem = "PI 3-kinase immunoprecipitated from human platelets"
datavalue = 3.70

[[record]]
molecule = "O=c1cc(N2CCOCC2)oc2c(-c3ccccc3C(F)(F)F)cccc12 [TGX-135]"
targetorsystem = "PI 3-kinase immunoprecipitated from human platelets"
datavalue = 2.30


----------
Measured IC50, listed per entry for reference.
System: PI 3-kinase immunoprecipitated from human platelets
testDescription: In vitro PI 3-kinase assay (32P incorporation into PI)
Assay type: biochemical
conditionInfo: PI 3-kinase from human platelets, PI substrate
observedProperty: IC50

[[record]]
structuresmilesstring = "Cc1cc(Nc2ccccc2O)c2nc(N3CCOCC3)cc(=O)n2c1"
observedproperty = "IC50"
datavalue = "200 nM"

[[record]]
structuresmilesstring = "O=c1cc(N2CCOCC2)oc2cc(/C=C/c3ccccc3)ccc12"
observedproperty = "IC50"
datavalue = "10000 nM"

[[record]]
structuresmilesstring = "O=c1cc(N2CCOCC2)oc2c(OCc3cccnc3)cccc12"
observedproperty = "IC50"
datavalue = "1000 nM"

[[record]]
structuresmilesstring = "O=c1cc(N2CCOCC2)oc2c(-c3ccccc3Cl)cccc12"
observedproperty = "IC50"
datavalue = "500 nM"

[[record]]
structuresmilesstring = "Cc1cccn2c(=O)cc(N3CCOCC3)nc12"
observedproperty = "IC50"
datavalue = "~11100 nM"

[[record]]
structuresmilesstring = "O=c1cc(N2CCOCC2)oc2c(-c3ccc(F)cc3)cccc12"
observedproperty = "IC50"
datavalue = "1000 nM"

[[record]]
structuresmilesstring = "Cc1c(OCc2ccccc2)ccc2c(=O)cc(N3CCOCC3)oc12"
observedproperty = "IC50"
datavalue = "10000 nM"

[[record]]
structuresmilesstring = "Cc1cc(CCc2ccncc2)c2nc(N3CCOCC3)cc(=O)n2c1"
observedproperty = "IC50"
datavalue = "1000 nM"

[[record]]
structuresmilesstring = "O=c1cc(N2CCOCC2)nc2c(-c3ccccc3)cccn12"
observedproperty = "IC50"
datavalue = "~10500 nM"

[[record]]
structuresmilesstring = "O=c1cc(N2CCOCC2)[nH]c2c(Oc3ccccc3F)cccc12"
observedproperty = "IC50"
datavalue = "150 nM"


----------
targetOrSystem: UniProt:P48736
Sequence (P48736 whole entry, species assumed): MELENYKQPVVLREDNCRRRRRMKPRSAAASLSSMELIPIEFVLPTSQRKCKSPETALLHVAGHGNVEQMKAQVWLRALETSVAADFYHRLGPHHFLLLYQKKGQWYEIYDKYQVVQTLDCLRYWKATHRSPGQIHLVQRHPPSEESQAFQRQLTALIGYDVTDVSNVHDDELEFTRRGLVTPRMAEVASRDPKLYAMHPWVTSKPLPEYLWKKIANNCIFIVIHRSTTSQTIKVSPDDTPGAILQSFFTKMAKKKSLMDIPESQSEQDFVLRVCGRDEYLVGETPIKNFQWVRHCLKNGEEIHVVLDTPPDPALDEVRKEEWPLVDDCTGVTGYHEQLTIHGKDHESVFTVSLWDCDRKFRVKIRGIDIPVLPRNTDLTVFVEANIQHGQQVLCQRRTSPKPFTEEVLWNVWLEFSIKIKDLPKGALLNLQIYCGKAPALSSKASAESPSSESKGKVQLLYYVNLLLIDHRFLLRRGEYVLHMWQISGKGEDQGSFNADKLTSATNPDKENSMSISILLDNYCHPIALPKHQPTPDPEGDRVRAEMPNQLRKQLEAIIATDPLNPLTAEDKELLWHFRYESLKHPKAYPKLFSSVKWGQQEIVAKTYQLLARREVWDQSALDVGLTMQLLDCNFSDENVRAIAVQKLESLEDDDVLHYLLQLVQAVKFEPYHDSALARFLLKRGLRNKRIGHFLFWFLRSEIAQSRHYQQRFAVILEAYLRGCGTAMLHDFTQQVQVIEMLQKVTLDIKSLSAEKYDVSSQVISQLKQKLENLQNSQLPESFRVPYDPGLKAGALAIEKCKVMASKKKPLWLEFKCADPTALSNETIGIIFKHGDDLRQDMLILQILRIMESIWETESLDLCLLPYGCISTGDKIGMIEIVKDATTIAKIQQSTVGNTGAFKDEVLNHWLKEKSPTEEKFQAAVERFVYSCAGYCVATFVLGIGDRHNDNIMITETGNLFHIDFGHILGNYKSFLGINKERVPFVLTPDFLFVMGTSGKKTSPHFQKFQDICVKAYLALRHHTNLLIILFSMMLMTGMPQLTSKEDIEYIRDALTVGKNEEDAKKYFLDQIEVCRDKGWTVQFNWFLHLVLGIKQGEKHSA
testDescription: In vitro enzyme assay PI3K γ (recombinant)
conditionInfo: recombinant γ isoform
pIC50: −log10 of the molar value.
observedProperty: pIC50

[[record]]
structuresmilesstring = "Cc1cc(Nc2ccc(O)cc2)c2nc(N3CCOCC3)cc(=O)n2c1"
observedproperty = "pIC50"
limitoperator = "="
datavalue = 5.70

[[record]]
structuresmilesstring = "O=c1cc(N2CCOCC2)oc2c(OCc3ccccc3)cccc12"
observedproperty = "pIC50"
limitoperator = "="
datavalue = 5.70

[[record]]
structuresmilesstring = "Cc1cc(NCc2ccccc2)c2nc(N3CCOCC3)cc(=O)n2c1"
observedproperty = "pIC50"
limitoperator = "<"
datavalue = 5.00

[[record]]
structuresmilesstring = "O=c1cc(N2CCOCC2)oc2c(Oc3ccccc3)cccc12"
observedproperty = "pIC50"
limitoperator = "="
datavalue = 6.70

[[record]]
structuresmilesstring = "O=c1cc(N2CCOCC2)[nH]c2c(Sc3ccccc3)cccc12"
observedproperty = "pIC50"
limitoperator = "<"
datavalue = 5.00

[[record]]
structuresmilesstring = "Cc1cc(F)ccc1Oc1cccc2c(=O)cc(N3CCOCC3)[nH]c12"
observedproperty = "pIC50"
limitoperator = "="
datavalue = 5.30

[[record]]
structuresmilesstring = "O=c1cc(N2CCOCC2)[nH]c2c(Oc3ccccc3)cccc12"
observedproperty = "pIC50"
limitoperator = "="
datavalue = 5.30

[[record]]
structuresmilesstring = "O=c1cc(N2CCOCC2)[nH]c2c(Oc3ccc(F)cc3)cccc12"
observedproperty = "pIC50"
limitoperator = "="
datavalue = 5.30

[[record]]
structuresmilesstring = "Cc1cc(Nc2ccc(O)cc2C)c2nc(N3CCOCC3)cc(=O)n2c1"
observedproperty = "pIC50"
limitoperator = "="
datavalue = 5.30

